Origin of values: patent US20160002247A1

Biological target: Human autotaxin enzyme (Homo sapiens, UniProt Q13822)
Construct: purchased R&D System
Experiment: Evaluation of autotaxin inhibitor, Method C (Test Example 3): 18:0 Lyso PC, choline assay, Resorufin fluorescence
Assay type: biochemical
Details: Assay Method C (Test Example 3), human autotaxin, 18:0 Lyso PC substrate; read-out: Inhibitory Activity (autotaxin enzyme inhibitory activity, IC50 class)
Description: (Method C) Evaluation of Autotaxin Inhibitor Solution B containing 100 mM Tris-HCl buffer (pH7.5), 150 mM NaCl, 5 mM MgCl2 and 0.05% Triton X-100 was prepared. […] The fluorescent dye Resorufin, which was produced by the reaction, was detected. The fluorescence was detected using ViewLux (PerkinElmer, Inc.) with an excitation wavelength of 531 nm and a fluorescence wavelength of 598 nm. […]
IC50 values by entry

                                   compound  measurement_name        result
0  CCCCCn1c(OC2CN(CC(=O)OC(C)(C)C)C2)cc(=O)n2cc(-c3ccc(Cl)cc3)nc12              IC50  10 to 100 nM
1  CCCCCn1c(-c2ccc(C(=O)NCCN)cc2)cc(=O)n2cc(-c3ccc(Cl)cc3)nc12              IC50  10 to 100 nM
2  CCCCCn1c(C2=CCN(C(C)=O)CC2)cc(=O)n2cc(-c3ccc(Cl)cc3)nc12              IC50  10 to 100 nM

Ask: // fetch IC50; item: CCCCCn1c(N2CCC[C@H]2C(=O)NCC(C)C(=O)O)cc(=O)n2cc(-c3ccc(Cl)cc3)nc12 (stereo partly drawn) ; system: Human autotaxin enzyme (Homo sapiens, UniProt Q13822)
Reply: < 10 nM

Ask: // fetch IC50; item: CCCCCn1c(N2C[C@@H](O)C[C@H]2C(=O)N[C@@H](CCc2ccccc2)C(=O)O)cc(=O)n2cc(-c3ccc(Cl)cc3)nc12 ; system: Human autotaxin enzyme (Homo sapiens, UniProt Q13822)
Reply: < 10 nM
